# TARGET_OR_SYSTEM: T1, human GITR (amino acids M1-V241, NCBI Accession #NP_004186.1) expressed on cells (human, UniProt Q9Y5U5 26-241)
# T1 sequence: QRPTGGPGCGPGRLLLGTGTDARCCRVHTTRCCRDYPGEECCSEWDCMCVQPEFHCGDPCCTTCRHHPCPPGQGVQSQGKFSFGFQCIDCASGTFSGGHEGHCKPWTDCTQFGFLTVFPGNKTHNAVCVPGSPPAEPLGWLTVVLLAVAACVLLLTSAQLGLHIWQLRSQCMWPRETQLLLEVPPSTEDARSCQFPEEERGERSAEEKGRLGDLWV
# ASSAY: cell-based or functional assay
fold activation, T-cell proliferation, plate-bound Ab 10.6 nM, donor 6 overview
The response must be a number in fold with no trailing unit.

# example entries with known answers
| BINDER | DISPLAY_UNIT | READING |
| --- | --- | --- |
| H4H14470P (antibody, human IgG4, V domains shown, human IgG4 (H4H)) VH: QVQLVESGGGVVQPGRSLRLSCAASGFTVRNYGMHWVRQAPGKGLEWVAVIWYDGSNKYYADSVKGRFTISRDNSKNTLFLQMNSLRAEDTAVYYCARGGELVRGDYYYGMDVWGQGTTVTVSS VL: DIQMTQSPSSLSASVGDRVTITCRASQGIRNDLGWYQQKPGKAPKRLIYGASSLQSGVPSRFSGSGSGTEFTLTISSLQPEDFATYYCLQHNSYPYTFGQGTKLEIK | fold | 6 |
| H4H14521P (antibody, human IgG4, V domains shown, human IgG4 (H4H)) VH: EVQLVESGGGLVQPGGSLRLSCAASGFTFRVYEMNWVRQAPGKGLEWISYIGSSGFTIYYADSVKGRFTISRDNAKNSLFLQLNSLRAEDTAVYYCARGWNDGVPNYLGMDVWGQGTTVTVSS VL: DIQMTQSPSSLSASVGDRVTITCQASQDINKYLNWYQQKPGKAPKLLIYDASNLETGVPSRFSGSGSGTDFTFTISSLQPEDIARYHCQQYDKIPLTFGGGTKVEIK | fold | 12 |
| H4H14469P (antibody, human IgG4, V domains shown, human IgG4 (H4H)) VH: QVQLVESGGGVVQPGGSLRLSCAVSGFTFSDYGMHWVRQVPGAGLEWVAVIYYEGSNKYYADSVKGRFTISRDNSKNTLYLQMNSLRVEDTSMYFCARGPLLGGNFYSYLMDVWGQGTTVTVSS VL: AIQMTQSPSSLSASVGDRVTITCRASQGIRNGLGWYQQKPGKAPKLLIYTASSLQSGVPSRFSGSGSGTDFTLTISSLQPEDFATYYCLQDYNYPFSFGPGTKVDIK | fold | 17 |
| H4H14525P (antibody, human IgG4, V domains shown, human IgG4 (H4H)) VH: QVQLVESGGGVVQPGRSLRLSCAASGFTFSSYGMHWVRQAPGKGLEWVAVIWYVGSNKYYGESVKGRFTISRDNSKNTLYLQMNSLRDEDTAIYYCARGGQLGSFYYYGMDVWGQGTTVTVSS VL: DIQMTQSPSSLSASVGDRVTITCRASQGIRNDLGWYQQKPGKAPKRLIYDVSSLQSGVPSRFSGSGSGTEFTLTISSLQPEDLATYYCLQHNSYPWTFGQGTKVEIK | fold | 3 |

fold activation, T-cell proliferation, plate-bound Ab 10.6 nM, donor 6 reported for this binder H4H14475P (antibody, human IgG4, V domains shown, human IgG4 (H4H)) VH: QVQLVESGGGVVQPGRSLRLSCAASGTIFSTHGMHWVRQAPGKGLEWVAVISYDGNKKYYAGSVKGRFTISRDNSKNTLYLQMNDVRSEDTAVYHCTTDITGITDYWGQGTLVTVSS VL: DIQMTQSPSSLSASVGDRVTITCRASQGIGNDLGWYQQKLGKAPKRLIYAASSLESGVPSRFSGSGSGTEFILTISSLQAEDFATYYCLQHNGFPTFGQGTKVEIK : 12
